src = the supplement of paper PMC3545927

target.of.assay: furin, P09958;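 further: purified furin at 1:10 enzyme:substrate in 50 mM HEPES pH 7.5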
Sequence (P09958 whole entry): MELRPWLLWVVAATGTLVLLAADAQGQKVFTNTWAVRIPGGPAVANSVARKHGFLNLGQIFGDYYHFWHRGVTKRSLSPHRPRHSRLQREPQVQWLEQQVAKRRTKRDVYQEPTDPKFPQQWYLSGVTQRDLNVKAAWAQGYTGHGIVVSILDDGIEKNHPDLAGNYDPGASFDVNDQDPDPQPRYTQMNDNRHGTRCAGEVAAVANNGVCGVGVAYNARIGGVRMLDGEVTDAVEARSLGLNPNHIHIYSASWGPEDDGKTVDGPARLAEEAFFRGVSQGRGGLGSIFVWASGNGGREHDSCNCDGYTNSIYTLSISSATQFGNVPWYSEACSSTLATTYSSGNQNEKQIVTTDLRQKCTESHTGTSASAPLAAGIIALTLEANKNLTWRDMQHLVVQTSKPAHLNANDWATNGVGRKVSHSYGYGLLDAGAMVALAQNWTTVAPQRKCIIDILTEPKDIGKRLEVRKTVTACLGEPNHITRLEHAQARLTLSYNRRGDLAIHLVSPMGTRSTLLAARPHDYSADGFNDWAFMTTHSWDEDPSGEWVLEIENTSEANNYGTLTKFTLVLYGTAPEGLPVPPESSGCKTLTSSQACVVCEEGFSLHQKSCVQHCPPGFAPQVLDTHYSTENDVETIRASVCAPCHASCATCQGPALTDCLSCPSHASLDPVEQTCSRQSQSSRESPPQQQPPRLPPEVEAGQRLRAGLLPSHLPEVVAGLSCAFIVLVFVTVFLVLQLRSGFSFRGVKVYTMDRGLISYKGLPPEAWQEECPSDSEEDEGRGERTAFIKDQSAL
assay.protocol: furin cleavage Z-score vs untreated control; higher = more cleavage, active = 3.5 or more, inactive = 1 or less, 8 variable residues between constant flanks
run.parameters: 7.5 min
Some of the results follow. The true hit rate is not given.
The sequences listed here are annotated with their furin cleavage Z-score.
readout.kind: furin cleavage Z-score

| sequence.text | readout.kind | test.result |
| --- | --- | --- |
| CATARRHGRDAGNASASA [FS-878] | furin cleavage Z-score | 6.42 (active) |
| CARKERRKHKAGNASASA [FS-2959] | furin cleavage Z-score | -0.0944 (inactive) |
| CARLRRSLGEAGNASASA [FS-1830] | furin cleavage Z-score | 4.48 (active) |
| CALSKRKKRKAGNASASA [FS-827] | furin cleavage Z-score | 8.35 (active) |
| CATAARRLRDAGNASASA [FS-382] | furin cleavage Z-score | 1.54 |
| CAKRKRWTGQAGNASASA [FS-2478] | furin cleavage Z-score | 1 |
| CAREFRIIFDAGNASASA [FS-2002] | furin cleavage Z-score | -0.0827 (inactive) |
